# credit: patent US5494917A

// IC50 lookup, one value per entry
Biological target: M1 receptor (Rattus norvegicus, UniProt P08482)
Sequence (P08482 1-460): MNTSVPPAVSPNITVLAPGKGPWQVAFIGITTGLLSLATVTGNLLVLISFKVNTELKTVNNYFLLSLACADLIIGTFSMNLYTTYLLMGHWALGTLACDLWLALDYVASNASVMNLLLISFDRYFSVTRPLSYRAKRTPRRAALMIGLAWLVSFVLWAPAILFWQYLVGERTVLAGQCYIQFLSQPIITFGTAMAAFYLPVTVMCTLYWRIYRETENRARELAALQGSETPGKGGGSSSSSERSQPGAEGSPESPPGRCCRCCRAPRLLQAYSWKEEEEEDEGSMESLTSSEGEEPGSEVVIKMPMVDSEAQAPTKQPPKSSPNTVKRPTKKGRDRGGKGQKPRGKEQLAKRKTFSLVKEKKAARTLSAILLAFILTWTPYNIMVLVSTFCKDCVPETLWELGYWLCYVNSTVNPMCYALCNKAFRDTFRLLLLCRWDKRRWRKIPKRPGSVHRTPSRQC
metric: IC50 (µM)

CC1OC2(CS1)CN1CCC2CC1 (stereo not shown) [AF102B, reference compound]    0.729
C[N+](C)(C)CC#CCOC(=O)Nc1cccc(Cl)c1 [McN-A-343, reference compound]    0.842
C(=C1\CN2CCC1CC2)/c1cccc(Oc2ccccc2)c1    0.023
C(=C1/CN2CCC1CC2)/c1cccc(Oc2ccccc2)c1    0.221
